Origin of values: patent US20250145566A1

target-entity: 5-HT2A receptor (Homo sapiens, UniProt P28223)
Construct: host or cells: HEK293 (ATCC CRL-1573), transient, membranes
Sequence (P28223 whole entry): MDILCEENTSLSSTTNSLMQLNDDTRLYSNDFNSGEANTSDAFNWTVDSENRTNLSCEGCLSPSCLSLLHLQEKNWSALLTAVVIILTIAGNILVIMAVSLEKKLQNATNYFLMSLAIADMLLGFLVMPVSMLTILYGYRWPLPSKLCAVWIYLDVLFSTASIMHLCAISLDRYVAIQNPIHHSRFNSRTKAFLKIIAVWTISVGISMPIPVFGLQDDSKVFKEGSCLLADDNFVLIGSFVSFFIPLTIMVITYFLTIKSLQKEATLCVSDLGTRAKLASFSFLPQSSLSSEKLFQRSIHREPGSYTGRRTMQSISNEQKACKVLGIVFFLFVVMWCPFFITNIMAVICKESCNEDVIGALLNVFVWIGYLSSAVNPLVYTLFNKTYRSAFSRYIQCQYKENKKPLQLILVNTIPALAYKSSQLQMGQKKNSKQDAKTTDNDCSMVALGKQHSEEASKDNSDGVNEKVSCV
assay-protocol: 5-HT2A radioligand ([3H]LSD) competition binding
condition-info: agonist radioligand: [3H]LSD (Table 18); read-out: 5HT2A Ki
pKi: −log10 of the molar value.

[
  {
    "molecule": "COc1cc(SC(F)(F)F)c(OC)cc1CC(C)N (racemic) [IV-1 (racemic)]",
    "pKi": 8.15
  }
]

###

target-entity: Serotonin transporter (Rattus norvegicus, UniProt P31652)
Construct: from tissue
Sequence (P31652 whole entry): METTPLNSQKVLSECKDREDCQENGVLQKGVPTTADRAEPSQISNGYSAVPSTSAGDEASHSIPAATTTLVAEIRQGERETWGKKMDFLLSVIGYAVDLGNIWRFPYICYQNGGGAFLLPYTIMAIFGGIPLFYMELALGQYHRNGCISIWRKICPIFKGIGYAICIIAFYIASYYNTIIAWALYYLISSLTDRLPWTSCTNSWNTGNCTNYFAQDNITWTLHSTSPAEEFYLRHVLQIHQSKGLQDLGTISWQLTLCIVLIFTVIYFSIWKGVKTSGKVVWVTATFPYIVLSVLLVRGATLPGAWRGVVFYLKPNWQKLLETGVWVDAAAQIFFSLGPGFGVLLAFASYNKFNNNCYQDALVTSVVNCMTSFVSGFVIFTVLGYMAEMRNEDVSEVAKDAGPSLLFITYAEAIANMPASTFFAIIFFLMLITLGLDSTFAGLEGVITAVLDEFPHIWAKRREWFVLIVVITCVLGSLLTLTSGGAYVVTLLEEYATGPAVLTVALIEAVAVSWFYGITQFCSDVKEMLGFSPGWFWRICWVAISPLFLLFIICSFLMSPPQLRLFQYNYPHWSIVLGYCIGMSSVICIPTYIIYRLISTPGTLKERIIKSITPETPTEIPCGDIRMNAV
assay-protocol: Serotonin transporter uptake, rat brain synaptosomes
Type: biochemical

[
  {
    "molecule": "NCCc1ccc2c(c1)OCS2 [II-14]",
    "IC50": "~500 nM"
  }
]
